assay: Caspase-3/7 induction in HepG2 cells by small molecules, qHTS assay (AID 1346978); settings: HepG2 caspase-3/7 activation, Caspase-Glo luminescence, 17 h; series mostly up to 92.4 µM; also: % is scaled to controls: 0 for no effect and ±100 for the full control effect; nearly all actives have a fitted effect of over 15% in size
Results filed as inconclusive are left out. Activity calls are given as the source filed them. Calls follow the shape of the dose curve; as a rule, active = well fitted activation curve with a large enough effect in the repeat runs; inconclusive = weak or mixed curves; inactive = flat fitted curve, though single readings scatter.
attribute measured: caspase activation

In [3]: df
Out[3]:
                                    compound             experimental_result
 0      O=C(O)c1cn(C2CC2)c2cc(Cl)c(F)cc2c1=O                        inactive
 1                   Cc1ccc2c(ccc3ccccc32)c1                        inactive
 2                          S=C(S)NCCNC(=S)S                        inactive
 3                           NCCCOCCOCCOCCCN                        inactive
 4        O=C(C(=O)c1ccc(Br)cc1)c1ccc(Br)cc1  -0.0549% [at 19 µM] (inactive)
 5                        Cc1ccc(C(N)=O)cc1N                        inactive
 6              CC1=CC(=O)/C(=C(/C)O)C(=O)O1                        inactive
 7  CC(C)CCCCCCOC(=O)c1ccc(C(=O)OCCCCCCC(C)C)c(C(=O)OCCCCCCC(C)C)c1                        inactive
 8  OCC1CC2CC1C1CCC(CO)C21 (stereo unspecified)                        inactive
 9                     CC(=O)OC/C=C/c1ccccc1                        inactive
10                    Nc1nc(N)c(-c2ccccc2)s1                        inactive
11  N[C@H]1C(O)O[C@H](CO)[C@H](O)[C@@H]1O (stereo partly specified)                        inactive
12                                 Cc1ccccn1                        inactive
13                     c1ccc(CNCc2ccccc2)cc1                        inactive
14  Cc1ccc(C(=O)C(C)CN2CCCCC2)cc1 (stereo unspecified)                        inactive
15                               CCCc1ccccc1                        inactive
16            Cc1ccc(C(C)c2ccc(C)c(C)c2)cc1C                        inactive
17            Cl/C(=C\n1cncn1)c1ccc(Cl)cc1Cl                        inactive
18  Cc1ccccc1N=Nc1ccc(N=Nc2c(O)ccc3ccccc23)c(C)c1                        inactive
19           CCOC(=O)CC(=O)c1cc(F)c(Cl)nc1Cl                        inactive
20  COC(=O)CSc1cc(N=c2sc(=O)n3n2CCCC3)c(F)cc1Cl                        inactive
21  C=CC(C)(CCC=C(C)C)OC(=O)c1ccccc1 (stereo unspecified)                        inactive
22  COc1ccc2[nH]c(S(=O)Cc3ncc(C)c(OC)c3C)nc2n1 (stereo unspecified)                        inactive
23                                  CCCC(C)C                        inactive
24                     CN1CCC[C@@H]1c1cccnc1                        inactive
25      CCCCC(CC)COCCCN (stereo unspecified)                        inactive
26  CC(C)(Oc1ccc(Cl)cc1)C(=O)OCCCOC(=O)C(C)(C)Oc1ccc(Cl)cc1                        inactive
27                     Oc1ccc(O)c2c(O)cccc12                        inactive
28          C1CCC2OC2C1 (stereo unspecified)                        inactive
29  CC(C(=O)O)c1ccc(C(=O)c2ccccc2)s1 (stereo unspecified)                        inactive
30  O=C(O)Cn1c(C(=O)Nc2nc(-c3ccccc3Cl)cs2)cc2ccccc21                        inactive
31  CC(=O)c1c(C)c([N+](=O)[O-])c(C(C)(C)C)c([N+](=O)[O-])c1C                        inactive
32                        CCOC(=S)SSC(=S)OCC                        inactive
33          Cc1c(Cn2ccnc2)c2ccccc2n1CCC(=O)O                        inactive
34  O=C(O)c1cccc(N(Cc2cccnc2)c2ccc(OC(F)F)c(OC(F)F)c2)c1                        inactive
35                   N#Cc1cc2ccccc2c2ccccc12                        inactive
36  CCc1nn(C2CCCCC2)c2cc(C3(C#N)CCC(C(=O)O)CC3)ccc12 (stereo unspecified)                        inactive
37                         C=C(C)C(=O)OC(C)C                        inactive
38  C[C@@H](C1=C(CCN(C)C)Cc2ccccc21)c1ccccn1                        inactive
39    O=C(O)Cc1cc(I)c(Oc2ccc(O)c(I)c2)c(I)c1                        inactive
40                         CCCCCCCCCCCCCCCBr                        inactive
41            CCCOc1ccc2nc(NC(=O)OC)[nH]c2c1                        inactive
42  CC(=O)/C(C)=C/C1C(C)=CCCC1(C)C (stereo unspecified)                        inactive
43                 CCCCOC(=O)/C=C\C(=O)OCCCC                        inactive
44                      NC(=S)N/N=C/c1cccnc1                        inactive
45     CN1CCN(C2=Nc3ccccc3Sc3ccc(Cl)cc32)CC1                        inactive
46         Cc1cc(CC(=O)O)c(C)n1-c1ccc(Cl)cc1                        inactive
47          CCCCOC(O)CC (stereo unspecified)                        inactive
48  Nc1cnn([C@@H]2O[C@H](CO)[C@@H](O)[C@H]2O)c(=O)n1                        inactive
49          ClC(Cl)(Cl)c1ccc(C(Cl)(Cl)Cl)cc1                        inactive
50            CNCC[C@@H](Oc1ccccc1C)c1ccccc1                        inactive
51            CCOC(=O)C1=NN(c2ccccc2)C(=O)C1                        inactive
52                         CCCCCCc1ccc(N)cc1                        inactive
53                   Oc1ccc(Sc2ccc(O)cc2)cc1                        inactive
54                          Oc1ccc2c(c1)OCO2                        inactive
55      O=C1c2cccc(O)c2C(=O)c2c(O)cc(CO)cc21                        inactive
